Origin of the recorded values: patent US20140087995A1

Hi there, I'd appreciate the recorded IC50 for every entry that follows.
target desc: T1, human calcitonin receptor (human, UniProt P30988 25-474)
T1 construct: whole, on cells; also called hCTR; hCT
T1 sequence (looked up): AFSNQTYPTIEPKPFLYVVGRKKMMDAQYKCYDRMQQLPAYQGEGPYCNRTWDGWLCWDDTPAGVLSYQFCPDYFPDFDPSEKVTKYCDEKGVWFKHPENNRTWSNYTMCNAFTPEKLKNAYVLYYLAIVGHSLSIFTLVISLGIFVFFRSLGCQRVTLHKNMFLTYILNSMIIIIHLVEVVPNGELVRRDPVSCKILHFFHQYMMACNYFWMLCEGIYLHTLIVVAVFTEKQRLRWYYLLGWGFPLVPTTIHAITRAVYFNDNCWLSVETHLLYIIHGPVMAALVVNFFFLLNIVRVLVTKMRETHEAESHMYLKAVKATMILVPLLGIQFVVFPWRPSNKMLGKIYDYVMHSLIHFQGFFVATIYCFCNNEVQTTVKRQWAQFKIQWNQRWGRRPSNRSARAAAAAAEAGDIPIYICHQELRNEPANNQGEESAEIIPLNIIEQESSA
assay method text: SPA competition binding, membranes with human calcitonin receptor, displacement of 125I-calcitonin (Assay VII)
Your answer should be a plain number; it is taken to be in nM.

Could you tell me which IC50 is on file for KCNTATCATQRLANFLRHSSPNFGAIPSSTNVGSETY (C20 diacid-gGlu on the alpha amino group of the N-terminal residue; disulfide bridge Cys2-Cys7; C-terminal amide, also called compound 23) [N^α1-[(4S)-4-carboxy-4-(19-carboxynonadecanoylamino)butanoyl]-[Arg17,Pro21,Pro27,Glu35]-h-amylin] ?
21.8

Try this binder next: KCNTATCATQRLANFLRHSSPNFGAIPSSTNVGRNTY (C20 diacid-gGlu on the alpha amino group of the N-terminal residue; disulfide bridge Cys2-Cys7; C-terminal amide, also called compound 39) [N^α1-[(4S)-4-carboxy-4-(19-carboxynonadecanoylamino)butanoyl]-[Arg17,Pro21,Pro27,Arg34]-h-amylin]
19.3

Try this binder next: KCNTATCATQRLANFLRHSSPNFGAIPSSTNVGSKTY (C20 diacid-gGlu on the alpha amino group of the N-terminal residue; disulfide bridge Cys2-Cys7; C-terminal amide, also called compound 34) [N^α1-[(4S)-4-carboxy-4-(19-carboxynonadecanoylamino)butanoyl]-[Arg17,Pro21,Pro27,Lys35]-h-amylin]
73.4

Try this binder next: KCNTATCATQRLAEFLRHSSPNFGAIPSSTNVGSNTY (C20 diacid-gGlu on the alpha amino group of the N-terminal residue; disulfide bridge Cys2-Cys7; C-terminal amide, also called compound 9) [N^α1-[(4S)-4-carboxy-4-(19-carboxynonadecanoylamino)butanoyl]-[Glu14,Arg17,Pro21,Pro27]-h-amylin]
1.14

Try this binder next: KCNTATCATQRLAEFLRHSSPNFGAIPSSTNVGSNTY (C20 diacid-gGlu-2xOEG on the alpha amino group of the N-terminal residue; disulfide bridge Cys2-Cys7; C-terminal amide, also called compound 19)
20.4

Try this binder next: KCNTATCATQRLANFLRHSSPNFGAIPSSTNVGHNTY (C20 diacid-gGlu on the alpha amino group of the N-terminal residue; disulfide bridge Cys2-Cys7; C-terminal amide, also called compound 40) [N^α1-[(4S)-4-carboxy-4-(19-carboxynonadecanoylamino)butanoyl]-[Arg17,Pro21,Pro27,His34]-h-amylin]
17.1
